Property: pIC50; scope: individual compounds
# Test target: EGFR (Homo sapiens, UniProt P00533)
# Construct: Kinases are expressed as either kinase domains or full length constructs; made in house
# Sequence (P00533 25-1210, species assumed): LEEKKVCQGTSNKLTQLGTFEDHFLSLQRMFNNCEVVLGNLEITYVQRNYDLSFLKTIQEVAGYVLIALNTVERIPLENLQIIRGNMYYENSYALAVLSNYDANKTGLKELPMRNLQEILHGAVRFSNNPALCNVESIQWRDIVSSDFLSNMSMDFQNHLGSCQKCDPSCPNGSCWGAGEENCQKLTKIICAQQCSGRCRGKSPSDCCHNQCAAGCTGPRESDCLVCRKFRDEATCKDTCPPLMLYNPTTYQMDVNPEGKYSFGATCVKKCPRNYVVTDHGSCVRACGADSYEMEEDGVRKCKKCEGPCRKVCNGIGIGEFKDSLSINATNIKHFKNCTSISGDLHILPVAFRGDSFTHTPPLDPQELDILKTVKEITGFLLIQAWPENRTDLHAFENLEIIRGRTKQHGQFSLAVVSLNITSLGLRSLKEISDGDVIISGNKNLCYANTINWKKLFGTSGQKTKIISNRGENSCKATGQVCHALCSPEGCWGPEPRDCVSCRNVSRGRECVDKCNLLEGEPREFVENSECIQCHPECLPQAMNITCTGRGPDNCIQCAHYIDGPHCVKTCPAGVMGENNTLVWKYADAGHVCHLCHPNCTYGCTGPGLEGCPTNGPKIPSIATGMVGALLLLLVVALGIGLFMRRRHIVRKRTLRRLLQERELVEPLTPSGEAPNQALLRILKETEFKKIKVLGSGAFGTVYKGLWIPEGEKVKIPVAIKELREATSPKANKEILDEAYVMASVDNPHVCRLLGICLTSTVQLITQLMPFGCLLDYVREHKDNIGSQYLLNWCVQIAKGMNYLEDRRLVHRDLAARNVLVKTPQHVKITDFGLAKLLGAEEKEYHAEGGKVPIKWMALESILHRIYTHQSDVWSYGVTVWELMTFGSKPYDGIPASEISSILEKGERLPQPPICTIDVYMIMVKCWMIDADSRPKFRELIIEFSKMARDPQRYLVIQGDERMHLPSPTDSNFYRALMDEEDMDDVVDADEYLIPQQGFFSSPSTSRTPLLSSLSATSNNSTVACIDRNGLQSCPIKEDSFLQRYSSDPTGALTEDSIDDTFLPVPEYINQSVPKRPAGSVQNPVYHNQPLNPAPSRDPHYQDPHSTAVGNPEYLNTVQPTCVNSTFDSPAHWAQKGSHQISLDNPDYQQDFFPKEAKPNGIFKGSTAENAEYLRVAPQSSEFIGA
# Protocol description: Kinase inhibition assay (33P transfer), EGFR
# Type: biochemical
# Experimental conditions: Table 2, kinase inhibition class; read-out: EGFR-1
pIC50: −log10 of the molar value.

O=c1[nH]c2ccccc2n1-c1ncnc(Nc2ncccn2)n1	< 4.83
CN(c1cccc(Cl)c1)c1ncnc(NCC2CCCO2)n1 (stereo not drawn)	5.12 to 5.90
CC(C)(C)c1cc(Nc2ncnc(Nc3ccc(CC(=O)O)cc3)n2)[nH]n1	5.18 to 5.96
Cc1cccc(Nc2ncnc(Nc3ccc(O)cc3)n2)c1	> 5.87
Cc1ccc2c(c1)CCCN2c1ncnc(Nc2cccc(CO)c2)n1	> 5.94
C#Cc1cccc(Nc2ncnc(-n3c(=O)[nH]c4ccccc43)n2)c1	5.14 to 5.91
COc1cc(Nc2ncnc(Nc3ccc(Br)cc3F)n2)cc(OC)c1OC	> 6.05
COc1ccc(Nc2ncnc(N3CCCc4ccc(C(F)(F)F)cc43)n2)cc1OC	> 6.03

Req: Param readout= pIC50; system= EGFR (Homo sapiens, UniProt P00533); entry= Cc1cc(Br)ccc1Nc1ncnc(-n2cccc2)n1 ; returns value.
Resp: < 4.87

Req: Report pIC50 for CC(C)(C)c1cc(Nc2ncnc(Cl)n2)[nH]n1 tested on EGFR (Homo sapiens, UniProt P00533).
Resp: < 4.75

Req: EGFR (Homo sapiens, UniProt P00533) / pIC50 / COc1cc(Nc2ncnc(Nc3ccc4c(c3)CCC4)n2)cc(OC)c1OC : value?
Resp: 5.21 to 5.99

Req: # value lookup — system EGFR (Homo sapiens, UniProt P00533), readout pIC50, item COc1cc(Nc2ncnc(N(Cc3ccccc3)c3nc4ccccc4[nH]3)n2)cc(OC)c1OC
Resp: 5.14 to 5.30

Req: Report pIC50 for COc1ccc(Nc2ncnc(Nc3ccc(N(C)C)cc3)n2)cc1OC tested on EGFR (Homo sapiens, UniProt P00533).
Resp: < 4.91

Values were extracted from patent US7074789B2.
